- Test system: MDCK cells
- assay.protocol: crystal violet cell adhesion (CVCA) cell toxicity assay
- measurement.setup: Canis lupus familiaris, MDCK, read-out: EC50 (μM), Active Compound
Where a name gives a salt, the structure may show the parent alone.
Quick reference: EC50 of the listed items.
metric: EC50

- CC12C(=O)C(C)(C(c3ccccc3)=C1c1ccccc1)C1(Br)C(=O)N(CCC(=O)NCCN)C(=O)C21.Cl (stereo not drawn) [oCOm-19, hydrochloride]: 86 µM
- Cc1nnc([C@@H](N)CCCCN2C(=O)C3C4(C)C(=O)C(C)(C(c5ccccc5)=C4c4ccccc4)C3(Br)C2=O)o1 (stereo partly drawn) [oCOM-45, Trifluoroacetic Acid Salt]: > 100 µM
- COC(=O)[C@@H](N)CCCCN1C(=O)C2C3(C)C(=O)C(C)(C(c4ccccc4)=C3c3ccccc3)C2(Br)C1=O (stereo partly drawn) [oCOm-30, Trifluoroacetic Acid Salt]: > 100 µM
- Cc1noc([C@@H](N)CCCCN2C(=O)C3C4(C)C(=O)C(C)(C(c5ccccc5)=C4c4ccccc4)C3(Br)C2=O)n1 (stereo partly drawn) [oCOM-43, Trifluoroacetic Acid Salt]: > 100 µM
- CC12C(=O)C(C)(C(c3ccccc3)=C1c1ccccc1)C1(Br)C(=O)N(CCCCCC(=O)O)C(=O)C21 (stereo not drawn): > 100 µM
- CCCOC(=O)[C@@H](N)CCCCN1C(=O)C2C3(C)C(=O)C(C)(C(c4ccccc4)=C3c3ccccc3)C2(Br)C1=O (stereo partly drawn) [oCOm-34, Trifluoroacetic Acid Salt]: > 100 µM

* * *

- Test system: MDCK cells
- assay.protocol: crystal violet cell adhesion (CVCA) cell toxicity assay
- measurement.setup: read-out: EC50 (μM), Inactive Compound; MDCK cells; inactive debromo or CO depleted analogues; 37° C.
Counter-ions that a name gives are not always drawn.
metric: EC50

• Cc1c2c(c(C)c(-c3ccccc3)c1-c1ccccc1)C(=O)N(CCNCCN)C2=O [BP-23, Bis-trifluoroacetate Salt] = > 100 µM

This collection of values is drawn from patent US11072584B2.
